- Assay overview: Therapeutic index, ratio of HC10 for mouse RBC to IC50 for cytotoxicity against human MCF7 cells
- Format: toxicity, cell-based
- Stated conditions: mouse RBC and MCF7 cells, read-out: TI
Non-standard residues stand in square brackets, D forms with d. Residues, ends and D or L forms follow the SMILES beside them. Aad = N[C@@H](CCCC(=O)O)C(=O)O
Recorded measurements of selectivity ratio, one per entry
Reported metric: selectivity ratio

| Compound | Val |
| --- | --- |
| CC(C)C[C@H](NC(=O)[C@H](CC(C)C)NC(=O)[C@H](CCCCN)NC(=O)[C@H](CCCCN)NC(=O)[C@H](CC(C)C)NC(=O)[C@H](CC(C)C)NC(=O)[C@H](CCCCN)NC(=O)[C@H](CCCCN)NC(=O)[C@H](CC(C)C)NC(=O)[C@H](CC(C)C)NC(=O)[C@H](CCC(=O)O)NC(=O)[C@H](CCCCN)NC(=O)[C@H](CC(C)C)NC(=O)[C@@H](N)CC(C)C)C(N)=O (H-LLKELLKKLLKKLL-NH2) | 1.24 |
| CC(C)C[C@H](NC(=O)[C@H](CCCCN)NC(=O)[C@H](CCCCN)NC(=O)[C@H](CC(C)C)NC(=O)[C@H](CC(C)C)NC(=O)[C@H](CCCCN)NC(=O)[C@H](CCCCN)NC(=O)[C@H](CC(C)C)NC(=O)[C@H](CC(C)C)NC(=O)[C@H](CCCCN)NC(=O)[C@H](CCCCN)NC(=O)[C@H](CC(C)C)NC(=O)[C@@H](N)CC(C)C)C(=O)N[C@@H](CCCC(=O)O)C(N)=O (H-LLKKLLKKLLKKL[Aad]-NH2) | 16.3 |
| CC(C)C[C@H](NC(=O)[C@H](CC(C)C)NC(=O)[C@H](CCCCN)NC(=O)[C@H](CCCCN)NC(=O)[C@H](CC(C)C)NC(=O)[C@H](CC(C)C)NC(=O)[C@H](CCCCN)NC(=O)[C@H](CCCCN)NC(=O)[C@H](CC(C)C)NC(=O)[C@H](CC(C)C)NC(=O)[C@H](CCCCN)NC(=O)[C@H](CCCCN)NC(=O)[C@H](CC(C)C)NC(=O)[C@@H](N)CCC(=O)O)C(N)=O (H-ELKKLLKKLLKKLL-NH2) | 0.647 |
